ASSAYED_SYSTEM: Melanin-concentrating hormone receptor 1 (Homo sapiens)
PROTOCOL_TEXT: antagonism of human MCHR1 receptor – cell-based, fluorescence, counter-screen for GPR7 antagonist project (AID 2148);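 further: 0% = vehicle with agonist and 100% = vehicle without agonist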
REPORTED_CONDITIONS: MCHR1-expressing cells, fluorescence antagonist assay; at 4.4 µM
The whole screen tested about 2,400 compounds, of which about 1,500 (62%) were called active. No stated cut-off is given here; in the data, active means inhibition above about 22%; inactive means the rest. The set was probably picked from earlier hits. Only a sample is shown.
Allowed answers: active, inactive

| COMPOUND | DISCRETE_LABEL |
| --- | --- |
| CN(c1ccccc1)S(=O)(=O)c1ccc(C(=O)NCCc2ccccc2)cc1 | inactive |
| CC(C)(C)NCc1cc(Br)ccc1OC1CCCC1 | inactive |
| Cc1ccc(S(=O)(=O)n2cnc3ccccc32)c(C)c1 | inactive |

Q. // outcome(item) with item = "S=C(NCCc1ccccc1)Nc1ccccc1"
A. active

====

Please provide measured inhibition for the entries that follow.
ASSAYED_SYSTEM: Melanin-concentrating hormone receptor 1 (Homo sapiens)
PROTOCOL_TEXT: antagonism of human MCHR1 receptor – cell-based, fluorescence, counter-screen for GPR7 antagonist project (AID 2148);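 further: 0% = vehicle with agonist and 100% = vehicle without agonist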
REPORTED_CONDITIONS: MCHR1-expressing cells, fluorescence antagonist assay; at 4.4 µM; stronger effect = higher value
The whole screen tested about 2,400 compounds, of which about 1,500 (62%) were called active. The set was probably picked from earlier hits. These entries were drawn from the full list.
Give bare numbers, in %.

| STRUCTURE_SMILES | ASSAYED_SYSTEM | inhibition, % |
| --- | --- | --- |
| Cc1ccccc1NC(=S)NC(=O)Cc1ccc(Cl)cc1 | Melanin-concentrating hormone receptor 1 (Homo sapiens) | 65.3 |
| Cc1c(CCO)c(=O)n(-c2ccccc2)n1S(=O)(=O)c1ccc(F)cc1 | Melanin-concentrating hormone receptor 1 (Homo sapiens) | -12.3 |
| COc1cc(OC)c(-n2cc(-c3ccc(Cl)cc3)[nH]c2=O)cc1Cl | Melanin-concentrating hormone receptor 1 (Homo sapiens) | 53.2 |

For every item in the list below, what is its measured inhibition?
1. C=CCSc1nsc(NC(=O)Nc2cccc(C(C)=O)c2)n1
2. CS(=O)(=O)N(Cc1ccc(Cl)cc1)c1ccc(C(=O)NCCSCc2ccco2)cc1

A.
[68.9, 22.2]

====

ASSAYED_SYSTEM: Melanin-concentrating hormone receptor 1 (Homo sapiens)
PROTOCOL_TEXT: antagonism of human MCHR1 receptor – cell-based, fluorescence, counter-screen for GPR7 antagonist project (AID 2148);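 further: 0% = vehicle with agonist and 100% = vehicle without agonist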
REPORTED_CONDITIONS: MCHR1-expressing cells, fluorescence antagonist assay; at 4.4 µM; stronger effect = higher value
The whole screen tested about 2,400 compounds, of which about 1,500 (62%) were called active. The set was probably picked from earlier hits. Only a sample is shown.
Would you mind labelling by inhibition? At or over 20% is met, under is not met.

| COMPOUND | ASSAYED_SYSTEM | DISCRETE_LABEL |
| --- | --- | --- |
| Nc1nnc(SCC(=O)Nc2ccc3nc(SCC(=O)Nc4ccccc4)sc3c2)s1 | Melanin-concentrating hormone receptor 1 (Homo sapiens) | met |
| O=S(=O)(c1ccc(OCC(O)CN2CCN(c3ccccc3Cl)CC2)cc1)N1CCOCC1 (centres undefined) | Melanin-concentrating hormone receptor 1 (Homo sapiens) | met |
| COc1ccc(NC(=O)C2CCC(CNS(=O)(=O)c3csc(C(N)=O)c3)CC2)cc1OC (centres undefined) | Melanin-concentrating hormone receptor 1 (Homo sapiens) | not met |
| COc1ccc(NS(=O)(=O)c2ccc(NC(=S)NC(=O)CC(C)C)cc2)cc1 | Melanin-concentrating hormone receptor 1 (Homo sapiens) | met |
| Cc1cccc(NC(=O)c2cccc(C(=O)Nc3cccc(C)c3C)n2)c1C | Melanin-concentrating hormone receptor 1 (Homo sapiens) | met |

Q. Please tell me: is the compound "Cc1ccc2[nH]cc(CCNC(=O)c3ccc([N+](=O)[O-])cc3)c2c1" at or over 20% in terms of inhibition?
A. met

Q. Please tell me: is the compound "CCN(CC)Cc1c(C(=O)OC)nnn1-c1nonc1N" at or over 20% in terms of inhibition?
A. not met

Q. Please tell me: is the compound CCC(C(=O)Nc1ccc(C(C)C)cc1)c1ccccc1 (centres undefined) at or over 20% in terms of inhibition?
A. met

Q. Please tell me: is the compound CS(=O)(=O)Nc1cccc(C2=NN(S(=O)(=O)c3ccccc3)C(c3cccs3)C2)c1 (centres undefined) at or over 20% in terms of inhibition?
A. met

Q. Please tell me: is the compound CC1CN(C(=O)CCC(=O)NCCCN2CCC(Cc3ccccc3)CC2)c2cc(Cl)ccc2O1 (centres undefined) at or over 20% in terms of inhibition?
A. met

Q. Please tell me: is the compound "CC(C)OCCCNc1ncnc2c1[nH]c1ccc(F)cc12" at or over 20% in terms of inhibition?
A. met

Q. Please tell me: is the compound "Cc1ccccc1Nc1nnc(SCC(=O)c2cc3ccccc3o2)s1" at or over 20% in terms of inhibition?
A. not met

Q. Please tell me: is the compound "Cc1cccc(-c2nc3ccc(C(=O)NCCN4CCN(C)CC4)cc3nc2-c2cccc(C)c2)c1" at or over 20% in terms of inhibition?
A. met

Q. Please tell me: is the compound Clc1ccc(C2CC(c3cccs3)n3ncnc3N2)cc1Cl (centres undefined) at or over 20% in terms of inhibition?
A. not met

Q. Please tell me: is the compound "CCOc1ccc(C(=O)NC(=S)Nc2ccc(N3CCOCC3)c(Cl)c2)cc1[N+](=O)[O-]" at or over 20% in terms of inhibition?
A. met

Q. Please tell me: is the compound N#CC1=C(SCc2ccc(C#N)cc2)N=C(N)C(c2nc(-c3ccccc3)cs2)C12CCCCC2 (centres undefined) at or over 20% in terms of inhibition?
A. met

Q. Please tell me: is the compound CCc1ccc(N(C(=O)c2csnn2)C(C(=O)NC2CCCCC2)c2ccncc2)cc1 (centres undefined) at or over 20% in terms of inhibition?
A. not met

Q. Please tell me: is the compound "Clc1ccc(-c2cc(C3CCNCC3)[nH]n2)c(Cl)c1" at or over 20% in terms of inhibition?
A. met

Q. Please tell me: is the compound "O=C(Nc1nc(-c2ccc3c(c2)OCO3)cs1)c1ccncc1" at or over 20% in terms of inhibition?
A. met

Q. Please tell me: is the compound "O=C(COc1ccc(S(=O)(=O)Nc2cccc(C(F)(F)F)c2)cc1)N1CCOCC1" at or over 20% in terms of inhibition?
A. met

====

Please provide measured inhibition for the entries that follow.
ASSAYED_SYSTEM: Melanin-concentrating hormone receptor 1 (Homo sapiens)
PROTOCOL_TEXT: antagonism of human MCHR1 receptor – cell-based, fluorescence, counter-screen for GPR7 antagonist project (AID 2148);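 further: 0% = vehicle with agonist and 100% = vehicle without agonist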
REPORTED_CONDITIONS: MCHR1-expressing cells, fluorescence antagonist assay; at 4.4 µM; stronger effect = higher value
Hit rate of the full screen: of about 2,400 compounds, about 1,500 (62%) were called active. So high a share suggests a set chosen from earlier hits. A selection follows.
One number for each entry, in %.

Completed entries (count: 5):
| COMPOUND | ASSAYED_SYSTEM | METRIC | READING |
| --- | --- | --- | --- |
| OC(CNCC1CCCO1)Cn1c2ccc(Br)cc2c2cc(Br)ccc21 (centres undefined) | Melanin-concentrating hormone receptor 1 (Homo sapiens) | inhibition | 81.1 |
| CS(=O)(=O)N(CC(O)Cn1c2ccccc2c2ccccc21)c1cccc2ccccc12 (centres undefined) | Melanin-concentrating hormone receptor 1 (Homo sapiens) | inhibition | 41.7 |
| Cc1ccc(CNC(=O)C2CCN(S(=O)(=O)c3ccc4nc5c(c(C(=O)O)c4c3)CC(C)CC5)CC2)cc1 (centres undefined) | Melanin-concentrating hormone receptor 1 (Homo sapiens) | inhibition | 10.8 |
| Cc1cc(Cl)ccc1OCCCC(=O)Nc1cccc(-n2cnnn2)c1 | Melanin-concentrating hormone receptor 1 (Homo sapiens) | inhibition | 45.7 |
| COc1cc(OC)cc(C(=O)N[C@H](C(=O)OCC(=O)NC(C)c2ccccc2)C(C)C)c1 (some centres undefined) | Melanin-concentrating hormone receptor 1 (Homo sapiens) | inhibition | 65 |

For every item in the list below, what is its measured inhibition?
1. CCc1ccc(NC(=O)c2ccc(Cn3cc([N+](=O)[O-])cn3)cc2)cc1
2. CCc1ccc2nc(N(CCCN(C)C)C(=O)c3ccc4c(c3)OCCO4)sc2c1

A.
1: 35.1; 2: 31.3

For every item in the list below, what is its measured inhibition?
1. Cc1ccccc1CN1C[C@@H]2C[C@@H](c3cn(C)nc3-c3ccccc3)N3CCC[C@@]23C1=O
2. CN(C)CCCN(C(=O)c1ccc(S(=O)(=O)N2CCCc3ccccc32)cc1)c1nc2ccc(F)cc2s1

A.
1. 21.2
2. 72.1
